# TARGET DESC: Potassium voltage-gated channel subfamily KQT member 2 (Mus musculus) (UniProt Q9Z351)
# Sequence (Q9Z351 whole entry): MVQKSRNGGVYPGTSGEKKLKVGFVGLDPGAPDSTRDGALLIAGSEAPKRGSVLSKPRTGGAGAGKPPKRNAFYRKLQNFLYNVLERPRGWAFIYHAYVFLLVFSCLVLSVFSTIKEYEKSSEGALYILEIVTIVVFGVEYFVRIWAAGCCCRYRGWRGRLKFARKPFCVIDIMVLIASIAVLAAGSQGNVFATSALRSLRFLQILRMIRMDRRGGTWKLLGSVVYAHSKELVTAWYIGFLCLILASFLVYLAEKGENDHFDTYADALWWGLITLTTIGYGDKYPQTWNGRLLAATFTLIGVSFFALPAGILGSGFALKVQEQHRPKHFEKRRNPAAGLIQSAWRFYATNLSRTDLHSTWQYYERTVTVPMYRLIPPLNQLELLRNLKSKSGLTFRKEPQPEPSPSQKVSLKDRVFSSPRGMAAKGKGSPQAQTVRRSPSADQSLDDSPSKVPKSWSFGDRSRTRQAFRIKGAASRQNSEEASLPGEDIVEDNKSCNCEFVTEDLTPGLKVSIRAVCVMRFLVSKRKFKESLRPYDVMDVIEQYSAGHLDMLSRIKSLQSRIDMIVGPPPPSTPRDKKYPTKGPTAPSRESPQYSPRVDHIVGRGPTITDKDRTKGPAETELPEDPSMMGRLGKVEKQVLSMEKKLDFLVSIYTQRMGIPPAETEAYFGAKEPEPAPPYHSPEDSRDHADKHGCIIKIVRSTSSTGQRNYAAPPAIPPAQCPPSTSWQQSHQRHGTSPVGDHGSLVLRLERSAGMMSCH
# ASSAY REMARKS: Efficacy for mKCNQ2 expressed in HEK293 cells relative to reference compound
# Type: functional, cell-based
Use 2 as the dividing line for E/Eref, with the line itself on the label 1 side and lower values as label 0.

C[C@H](NC(=O)/C=C/c1ccccc1F)c1ccc2c(c1)NCCO2; label 0

Task: Is E/Eref at least 2? Consider `C[C@H](NC(=O)/C=C/c1ccccc1)c1cccc(N2CCOCC2)c1`
Output: label 0

Task: Now consider `CCOC(=O)Nc1ccc(NCc2ccc(F)cc2)cc1N` and answer again.
Output: label 0

Task: Now consider `C[C@H](NC(=O)/C=C/c1ccccc1F)c1ccc2c(c1)N(C)CCO2` and answer again.
Output: label 0

Task: Now consider `C[C@H](NC(=O)/C=C/c1ccccc1F)c1ccc2c(c1)N(CC1CC1)CCO2` and answer again.
Output: label 0

Task: Now consider `CCN1CCOc2ccc([C@H](C)NC(=O)/C=C/c3ccccc3F)cc21` and answer again.
Output: label 1

All values here come from ChEMBL document CHEMBL1147528.
